Where do the numbers come from? From patent US20260193173A1.

MEASURED_ON: Bcl-2 (Homo sapiens, UniProt P10415)
Sequence (P10415 whole entry): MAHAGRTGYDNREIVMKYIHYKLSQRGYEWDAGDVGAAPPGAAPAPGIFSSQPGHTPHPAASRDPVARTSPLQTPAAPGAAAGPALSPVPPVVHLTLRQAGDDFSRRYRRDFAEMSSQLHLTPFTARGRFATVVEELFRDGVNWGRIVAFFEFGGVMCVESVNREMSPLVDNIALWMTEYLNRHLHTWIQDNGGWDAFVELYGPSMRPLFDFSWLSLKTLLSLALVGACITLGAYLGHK
In this section we review reported IC50 values for a set of compounds.
Write it as a number; the unit nM goes unstated.

>>> measured("CCC(C)C(NC(=O)c1ccc(NC(=O)C(NC(=O)c2ccc(N)c(OC)c2)C(C)CC)c(OCC(C)C)c1)C(=O)Nc1ccc(C(N)=O)cc1OCc1ccccc1 (stereo not drawn) [Compound B9]")
1540
>>> measured("CC(C)COc1cc(C(=O)NC(CS)C(=O)Nc2ccc(C(=O)NC(Cc3ccccc3)C(=O)Nc3ccc(C(N)=O)cc3OCC(C)C)cc2OCC(C)C)ccc1N (stereo not drawn) [Compound B11]")
1080

query: Query (compound): COc1cc(C(=O)NC(Cc2ccc(O)cc2)C(=O)Nc2ccc(C(=O)NC(CCSC)C(=O)Nc3ccc(C(N)=O)cc3OCc3ccccc3)cc2OCC(C)C)ccc1N (stereo not drawn) [Compound B12] ; field requested: IC50
result: 599
